Kindly state ELISA absorbance at 492 nm for each of the entries shown.
# Tested on: biomarker (antibody) in serum samples from patients with symptoms of tuberculosis
# Assay type: binding, human
# CONDITION_DETAILS: serum sample 45 TB−
Marks after values point to notes of the source that are not given here.

Data request: Quick one: ELISA absorbance at 492 nm of CCCCCCCCCCCCCCCCCCCCCC[C@@H](C(=O)OC[C@H]1O[C@H](OC)[C@@H](O)[C@@H]1O)[C@H](O)CCCCCCCCCCCCCCCCC[C@@H]1C[C@@H]1CCCCCCCCCCCCCCCC[C@@H](OC)[C@@H](C)CCCCCCCCCCCCCCCCCC [Antigen A] ?
Data returned: 0.33*

Data request: Find the recorded ELISA absorbance at 492 nm belonging to CCCCCCCCCCCCCCCCCCCCCC[C@@H](C(=O)OC[C@H]1O[C@H](OC)[C@@H](O)[C@@H]1O)[C@H](O)CCCCCCCCCCCCCCC[C@@H]1C[C@@H]1CCCCCCCCCCCCCCCCCCC(=O)C(C)CCCCCCCCCCCCCCCCCC (stereo partly drawn) [Antigen C] and report it.
Data returned: 0.49*

Data request: Quick one: ELISA absorbance at 492 nm for CCCCCCCCCCCCCCCCCCCCCC[C@@H](C(=O)OC[C@H]1O[C@H](OC)[C@@H](O)[C@@H]1O)[C@H](O)CCCCCCCCCCCCCCCCC[C@H]1C[C@H]1CCCCCCCCCCCCCCCC[C@@H](OC)[C@@H](C)CCCCCCCCCCCCCCCCCC [Antigen E] ?
Data returned: 0.35*

---

# Tested on: biomarker (antibody) in serum samples from patients with symptoms of tuberculosis
# Format: binding, human
# CONDITION_DETAILS: serum sample 26 TB−
Marks after values point to notes of the source that are not given here.
So I've got a bunch of compounds here, and I need their ELISA absorbance at 492 nm values.

Data request: For CCCCCCCCCCCCCCCCCCCCCCCC[C@@H](C(=O)OC[C@H]1O[C@H](OC)[C@@H](O)[C@@H]1O)[C@H](O)CCCCCCCCCCCCCCCCC[C@@H]1C[C@@H]1CCCCCCCCCCCCCCCC[C@@H](OC)[C@@H](C)CCCCCCCCCCCCCCCCCC [Antigen B] , what is its reported ELISA absorbance at 492 nm?
Data returned: 0.64*

Data request: I'd like to know its ELISA absorbance at 492 nm. The compound in question is CCCCCCCCCCCCCCCCCCCCCC[C@@H](C(=O)OC[C@H]1O[C@H](OC)[C@@H](O)[C@@H]1O)[C@H](O)CCCCCCCCCCCCCCC[C@@H]1C[C@@H]1CCCCCCCCCCCCCCCCCCC(=O)C(C)CCCCCCCCCCCCCCCCCC (stereo partly drawn) [Antigen C]
Data returned: 0.90*

Data request: Item under review: CCCCCCCCCCCCCCCCCCCCCC[C@@H](C(=O)OC[C@H]1O[C@H](OC)[C@@H](O)[C@@H]1O)[C@H](O)CCCCCCCCCCCCCCCCC[C@@H]1C[C@@H]1CCCCCCCCCCCCCCCC[C@@H](OC)[C@@H](C)CCCCCCCCCCCCCCCCCC [Antigen A] . Reported ELISA absorbance at 492 nm?
Data returned: 0.52*

---

Give ELISA absorbance at 492 nm for every item shown.
# System: biomarker (antibody) in serum samples from patients with symptoms of tuberculosis
# Format: binding, human
# CONDITION_DETAILS: serum sample 25 TB−
Answer with a number only.

Data request: Find the recorded ELISA absorbance at 492 nm belonging to CCCCCCCCCCCCCCCCCCCCCCCC[C@@H](C(=O)OC[C@H]1O[C@H](OC)[C@@H](O)[C@@H]1O)[C@H](O)CCCCCCCCCCCCCCCCC[C@@H]1C[C@@H]1CCCCCCCCCCCCCCCC[C@@H](OC)[C@@H](C)CCCCCCCCCCCCCCCCCC [Antigen B] and report it.
Data returned: 0.23

Data request: Data request, read-out ELISA absorbance at 492 nm, for CCCCCCCCCCCCCCCCCCCCCC[C@@H](C(=O)OC[C@H]1O[C@H](OC)[C@@H](O)[C@@H]1O)[C@H](O)CCCCCCCCCCCCCCCCC[C@H]1C[C@H]1CCCCCCCCCCCCCCCC[C@@H](OC)[C@@H](C)CCCCCCCCCCCCCCCCCC [Antigen E]
Data returned: 0.18

Data request: Request the reported ELISA absorbance at 492 nm associated with CCCCCCCCCCCCCCCCCCCCCC[C@@H](C(=O)OC[C@H]1O[C@H](OC)[C@@H](O)[C@@H]1O)[C@H](O)CCCCCCCCCCCCCCCCC[C@@H]1C[C@@H]1CCCCCCCCCCCCCCCC[C@@H](OC)[C@@H](C)CCCCCCCCCCCCCCCCCC [Antigen A]
Data returned: 0.18
